# System: MRP1 (ABCC1) (Homo sapiens, UniProt P33527)
# Construct: expressed in transfected cells; host or cells: Flp-In 293
# Sequence (P33527 whole entry): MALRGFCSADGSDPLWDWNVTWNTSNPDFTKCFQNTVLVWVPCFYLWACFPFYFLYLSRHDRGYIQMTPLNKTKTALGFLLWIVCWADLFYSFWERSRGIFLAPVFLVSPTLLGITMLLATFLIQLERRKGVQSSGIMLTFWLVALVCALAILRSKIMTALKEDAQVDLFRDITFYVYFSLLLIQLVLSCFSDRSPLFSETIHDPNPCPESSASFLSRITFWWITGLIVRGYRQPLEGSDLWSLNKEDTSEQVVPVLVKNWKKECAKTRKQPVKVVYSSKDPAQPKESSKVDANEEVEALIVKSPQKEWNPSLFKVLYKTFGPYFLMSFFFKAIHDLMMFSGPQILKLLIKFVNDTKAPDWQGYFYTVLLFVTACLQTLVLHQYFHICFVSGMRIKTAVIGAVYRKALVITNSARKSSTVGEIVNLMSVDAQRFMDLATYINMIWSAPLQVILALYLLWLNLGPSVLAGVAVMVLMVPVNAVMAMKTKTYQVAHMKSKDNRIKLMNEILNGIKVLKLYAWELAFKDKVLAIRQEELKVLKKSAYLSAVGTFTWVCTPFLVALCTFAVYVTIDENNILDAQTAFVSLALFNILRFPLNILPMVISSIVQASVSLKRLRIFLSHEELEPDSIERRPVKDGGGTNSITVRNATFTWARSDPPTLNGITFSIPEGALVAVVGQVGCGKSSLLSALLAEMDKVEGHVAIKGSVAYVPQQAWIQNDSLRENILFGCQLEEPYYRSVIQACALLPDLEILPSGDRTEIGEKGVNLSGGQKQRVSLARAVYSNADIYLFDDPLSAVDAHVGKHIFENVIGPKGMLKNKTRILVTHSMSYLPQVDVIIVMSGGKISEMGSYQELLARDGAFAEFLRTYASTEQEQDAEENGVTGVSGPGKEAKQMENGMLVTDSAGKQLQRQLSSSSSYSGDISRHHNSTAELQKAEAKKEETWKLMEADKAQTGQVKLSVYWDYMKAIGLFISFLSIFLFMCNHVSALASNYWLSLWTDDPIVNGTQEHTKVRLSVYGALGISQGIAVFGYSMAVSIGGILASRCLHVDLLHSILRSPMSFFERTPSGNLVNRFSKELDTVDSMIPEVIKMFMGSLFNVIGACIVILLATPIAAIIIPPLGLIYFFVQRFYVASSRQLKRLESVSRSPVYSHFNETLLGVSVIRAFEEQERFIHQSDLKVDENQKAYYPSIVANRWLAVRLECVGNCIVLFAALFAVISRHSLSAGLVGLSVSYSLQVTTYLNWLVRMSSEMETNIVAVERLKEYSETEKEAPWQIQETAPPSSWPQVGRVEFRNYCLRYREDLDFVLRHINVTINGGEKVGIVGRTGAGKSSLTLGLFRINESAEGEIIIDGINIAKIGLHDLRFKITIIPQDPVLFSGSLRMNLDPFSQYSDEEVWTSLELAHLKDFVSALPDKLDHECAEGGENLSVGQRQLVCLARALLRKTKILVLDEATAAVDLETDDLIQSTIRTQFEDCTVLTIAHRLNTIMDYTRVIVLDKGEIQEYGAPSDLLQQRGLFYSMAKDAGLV
# Experiment Summary: MRP1-mediated calcein-AM efflux inhibition (selectivity assay), ABCC1-transfected Flp-In 293 cells
# Assay type: cell-based
# Run Parameters: probe calcein-AM (cAM), [Inhibitor] 1 μM, 0.2 μM cAM
Assay Metric: inhibition at 30 min, 1 μM (%)

q: Fill in inhibition at 30 min, 1 μM for CC[C@@H](C)[C@H](NC(=O)c1cc(=O)c2c(OCc3ccccc3Br)cccc2o1)C(=O)N[C@@H](CC(C)C)C(=O)OC [7b (series 2)] tested with MRP1 (ABCC1) (Homo sapiens, UniProt P33527).
a: 10.3

q: Give reported inhibition at 30 min, 1 μM for COC(=O)[C@@H](NC(=O)c1cc(=O)c2c(OCc3ccccc3Br)cccc2o1)C(C)C [5d (series 1)] (MRP1 (ABCC1) (Homo sapiens, UniProt P33527))
a: 12.6

q: Provide inhibition at 30 min, 1 μM, recorded with MRP1 (ABCC1) (Homo sapiens, UniProt P33527), of CC[C@@H](C)[C@H](NC(=O)c1cc(=O)c2c(OCc3ccc(Br)cc3)cccc2o1)C(=O)O [6b (series 1)]
a: 21.9

a = COC(=O)[C@@H](Cc1c[nH]c2ccccc12)NC(=O)c1cc(=O)c2c(OCc3ccc(Br)cc3)cccc2o1 [5i (series 1)]
b = COC(=O)[C@H](CC(C)C)NC(=O)c1cc(=O)c2c(OCc3ccccc3Br)cccc2o1 [5c (series 1)]
q: API: POST /compare with a and b ; response names the item with higher inhibition at 30 min, 1 μM. Indicate which entry you chose by stating its label.
a: b
(b: 20.2%, a: 11.9%)

* * *

Recorded melting point values for a group of molecules are listed next.

q: Answer with the recorded melting point of CCC(C)[C@H](NC(=O)c1cc(=O)c2c(OCc3ccccc3Br)cccc2o1)C(=O)O (some centres unmarked) [6a (series 1)] only.
a: 242.8 to 243.7 °C

q: Please report the measured melting point for COC(=O)[C@H](Cc1c[nH]c2ccccc12)NC(=O)c1cc(=O)c2c(OCc3ccccc3Br)cccc2o1 [5g (series 1)]
a: 250 to 252.8 °C

q: Consider the molecule O=C(N[C@H](Cc1c[nH]c2ccccc12)C(=O)O)c1cc(=O)c2c(OCc3ccc(Br)cc3)cccc2o1 [6e (series 1)] . State its measured melting point.
a: 185.5 to 186.7 °C

q: Specify reported melting point for the molecule shown: COC(=O)[C@@H](Cc1c[nH]c2ccccc12)NC(=O)c1cc(=O)c2c(OCc3ccc(Br)cc3)cccc2o1 [5i (series 1)]
a: 236.2 to 237.9 °C

q: Answer with the recorded melting point of COC(=O)[C@H](CC(C)C)NC(=O)c1cc(=O)c2c(OCc3ccccc3Br)cccc2o1 [5c (series 1)] only.
a: 60.3 to 60.4 °C

q: Answer with reported melting point of COC(=O)[C@@H](NC(=O)c1cc(=O)c2c(OCc3ccccc3Br)cccc2o1)C(C)C [5d (series 1)]
a: 127 to 128.2 °C

q: Return melting point (reported value) for this molecule: COC(=O)[C@H](Cc1c[nH]c2ccccc12)NC(=O)c1cc(=O)c2c(OCc3ccc(Br)cc3)cccc2o1 [5h (series 1)]
a: 235.3 to 236.2 °C

Now look at this entry.
q: Check the records and state melting point for CCC(C)[C@H](NC(=O)c1cc(=O)c2c(OCc3ccccc3Br)cccc2o1)C(=O)OC (some centres unmarked) [5a (series 1)]
a: 123.1 to 125.7 °C

* * *

Below, each of the compounds is paired with its reported inhibition at 30 min, 1 µM value.
# System: BCRP/ABCG2 (Homo sapiens)
# Sequence (Q9UNQ0 whole entry): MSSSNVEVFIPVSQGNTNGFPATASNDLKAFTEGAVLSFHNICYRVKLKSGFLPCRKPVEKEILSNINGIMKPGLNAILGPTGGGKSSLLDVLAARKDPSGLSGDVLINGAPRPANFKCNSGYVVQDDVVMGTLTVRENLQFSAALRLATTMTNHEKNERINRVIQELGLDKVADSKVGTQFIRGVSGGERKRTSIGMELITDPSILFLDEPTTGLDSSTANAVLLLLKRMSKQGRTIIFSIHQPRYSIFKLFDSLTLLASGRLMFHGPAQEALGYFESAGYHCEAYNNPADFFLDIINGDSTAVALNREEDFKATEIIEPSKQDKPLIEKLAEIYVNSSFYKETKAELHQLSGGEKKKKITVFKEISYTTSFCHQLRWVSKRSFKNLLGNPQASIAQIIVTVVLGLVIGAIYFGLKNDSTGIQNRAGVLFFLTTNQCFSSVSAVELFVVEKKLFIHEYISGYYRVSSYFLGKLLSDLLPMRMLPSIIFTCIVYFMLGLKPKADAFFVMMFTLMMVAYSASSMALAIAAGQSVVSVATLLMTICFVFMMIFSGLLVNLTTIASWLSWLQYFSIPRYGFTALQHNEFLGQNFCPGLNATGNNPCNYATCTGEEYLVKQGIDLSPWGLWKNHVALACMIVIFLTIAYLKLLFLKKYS
# Experiment Summary: BCRP-mediated mitoxantrone efflux inhibition, ABCG2-transfected HEK293 cells, flow cytometry
# Run Parameters: human, probe mitoxantrone (MX), 4 μM
Give just the number in %; leave the unit off.

Illustrative cases are given below, each with its answer.
q: Using the record for COC(=O)[C@H](CC(C)C)NC(=O)c1cc(=O)c2c(OCc3ccccc3Br)cccc2o1 [5c (series 1)] , state its measured inhibition at 30 min, 1 µM.
a: 114

q: Fill in reported inhibition at 30 min, 1 µM for this entry: CC[C@@H](C)[C@H](NC(=O)c1cc(=O)c2c(OCc3ccccc3Br)cccc2o1)C(=O)N[C@H](C(=O)OC)C(C)C [7a (series 2)]
a: 84.8

Continuing:
q: Write down inhibition at 30 min, 1 µM measured for item COC(=O)[C@H](Cc1c[nH]c2ccccc12)NC(=O)c1cc(=O)c2c(OCc3ccc(Br)cc3)cccc2o1 [5h (series 1)]
a: 96.4

* * *

# System: P-gp (ABCB1) (Homo sapiens)
# Construct: expressed in transfected cells; host or cells: NIH/3T3
# Sequence (P08183 whole entry): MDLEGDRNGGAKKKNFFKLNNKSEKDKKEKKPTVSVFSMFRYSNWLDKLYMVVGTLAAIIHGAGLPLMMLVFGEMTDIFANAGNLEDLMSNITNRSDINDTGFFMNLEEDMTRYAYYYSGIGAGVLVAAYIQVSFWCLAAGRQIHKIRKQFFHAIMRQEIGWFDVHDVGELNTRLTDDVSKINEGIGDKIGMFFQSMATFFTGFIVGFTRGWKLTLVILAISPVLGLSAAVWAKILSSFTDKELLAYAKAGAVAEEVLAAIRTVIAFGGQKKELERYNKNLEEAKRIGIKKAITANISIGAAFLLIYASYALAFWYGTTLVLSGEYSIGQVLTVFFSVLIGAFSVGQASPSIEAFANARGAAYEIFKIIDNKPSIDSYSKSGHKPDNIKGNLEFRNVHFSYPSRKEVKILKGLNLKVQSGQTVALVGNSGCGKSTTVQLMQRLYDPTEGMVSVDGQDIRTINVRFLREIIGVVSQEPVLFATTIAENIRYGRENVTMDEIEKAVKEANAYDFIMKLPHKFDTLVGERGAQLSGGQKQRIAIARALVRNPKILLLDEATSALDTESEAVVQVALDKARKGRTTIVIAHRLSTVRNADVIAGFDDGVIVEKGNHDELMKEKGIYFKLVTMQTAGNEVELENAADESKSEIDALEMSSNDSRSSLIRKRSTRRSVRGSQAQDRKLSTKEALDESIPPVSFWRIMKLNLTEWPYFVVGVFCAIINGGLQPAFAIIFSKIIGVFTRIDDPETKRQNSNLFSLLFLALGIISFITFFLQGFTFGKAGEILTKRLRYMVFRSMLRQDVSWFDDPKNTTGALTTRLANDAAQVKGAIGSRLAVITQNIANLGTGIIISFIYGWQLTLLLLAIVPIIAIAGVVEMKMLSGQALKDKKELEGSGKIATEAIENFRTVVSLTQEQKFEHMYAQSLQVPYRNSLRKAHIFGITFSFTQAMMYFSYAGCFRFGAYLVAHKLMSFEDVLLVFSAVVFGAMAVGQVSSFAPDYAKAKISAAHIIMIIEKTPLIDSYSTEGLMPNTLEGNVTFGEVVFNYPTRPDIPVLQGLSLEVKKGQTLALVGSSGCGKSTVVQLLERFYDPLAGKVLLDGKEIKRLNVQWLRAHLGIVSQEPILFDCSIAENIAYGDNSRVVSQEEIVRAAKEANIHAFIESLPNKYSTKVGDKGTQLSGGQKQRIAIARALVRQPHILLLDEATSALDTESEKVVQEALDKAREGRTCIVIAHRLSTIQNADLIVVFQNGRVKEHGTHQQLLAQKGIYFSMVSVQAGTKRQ
# Experiment Summary: P-gp-mediated rhodamine 123 efflux inhibition (selectivity assay), ABCB1-transfected NIH/3T3 cells
# Assay type: cell-based
# Run Parameters: probe rhodamine 123 (R123); [Inhibitor] 1 μM; 0.5 μM R123
Assay Metric: inhibition at 30 min, 1 μM (%)

q: Return inhibition at 30 min, 1 μM (reported value) for this compound: COC(=O)[C@@H](Cc1c[nH]c2ccccc12)NC(=O)c1cc(=O)c2c(OCc3ccc(Br)cc3)cccc2o1 [5i (series 1)]
a: 7.2

q: Look up inhibition at 30 min, 1 μM of COC(=O)[C@H](Cc1c[nH]c2ccccc12)NC(=O)c1cc(=O)c2c(OCc3ccccc3Br)cccc2o1 [5g (series 1)] and report it.
a: 7.4

q: Return value of inhibition at 30 min, 1 μM for input COC(=O)[C@@H](NC(=O)c1cc(=O)c2c(OCc3ccccc3Br)cccc2o1)C(C)C [5d (series 1)] , no commentary.
a: 7.9

q: Look up and report measured inhibition at 30 min, 1 μM for this entry: COC(=O)[C@H](CC(C)C)NC(=O)c1cc(=O)c2c(OCc3ccccc3Br)cccc2o1 [5c (series 1)]
a: 7

q: Give the measured inhibition at 30 min, 1 μM for COC(=O)[C@H](Cc1ccccc1)NC(=O)c1cc(=O)c2c(OCc3ccc(Br)cc3)cccc2o1 [5f (series 1)]
a: 6.4

q: Name the recorded inhibition at 30 min, 1 μM of the item CC[C@@H](C)[C@H](NC(=O)c1cc(=O)c2c(OCc3ccc(Br)cc3)cccc2o1)C(=O)O [6b (series 1)] in your answer.
a: 7.7

q: Annotate the compound CCC(C)[C@H](NC(=O)c1cc(=O)c2c(OCc3ccccc3Br)cccc2o1)C(=O)O (stereo partly shown) [6a (series 1)] with its measured inhibition at 30 min, 1 μM.
a: 7.8

* * *

# System: MRP1 (ABCC1) (Homo sapiens)
# Construct: expressed in transfected cells; host or cells: Flp-In 293
# Experiment Summary: MRP1-mediated calcein-AM efflux inhibition (selectivity assay), ABCC1-transfected Flp-In 293 cells
# Format: cell-based
# Run Parameters: probe calcein-AM (cAM), [Inhibitor] 1 μM, 0.2 μM cAM
Assay Metric: inhibition at 30 min, 1 μM (%)

See these solved cases before continuing.
q: Assign inhibition at 30 min, 1 μM to the following record: CC[C@@H](C)[C@H](NC(=O)c1cc(=O)c2c(OCc3ccc(Br)cc3)cccc2o1)C(=O)N[C@@H](CC(C)C)C(=O)OC [7d (series 2)]
a: 10.9

q: Identify inhibition at 30 min, 1 μM associated with the molecule CC[C@@H](C)[C@H](NC(=O)c1cc(=O)c2c(OCc3ccccc3Br)cccc2o1)C(=O)N[C@H](C(=O)OC)C(C)C [7a (series 2)]
a: 11.1

q: Identify measured inhibition at 30 min, 1 μM associated with CCC(C)[C@H](NC(=O)c1cc(=O)c2c(OCc3ccccc3Br)cccc2o1)C(=O)O (stereo partly shown) [6a (series 1)]
a: 17.1

q: Entry COC(=O)[C@H](Cc1ccccc1)NC(=O)c1cc(=O)c2c(OCc3ccc(Br)cc3)cccc2o1 [5f (series 1)] needs its inhibition at 30 min, 1 μM filled in; supply it.
a: 23

q: Answer with the recorded inhibition at 30 min, 1 μM for the molecule listed here: CC[C@@H](C)[C@H](NC(=O)c1cc(=O)c2c(OCc3ccc(Br)cc3)cccc2o1)C(=O)N[C@H](C(=O)OC)C(C)C [7c (series 2)]
a: 11.5

P = COC(=O)[C@H](Cc1c[nH]c2ccccc12)NC(=O)c1cc(=O)c2c(OCc3ccc(Br)cc3)cccc2o1 [5h (series 1)]
Q = COC(=O)[C@H](Cc1c[nH]c2ccccc12)NC(=O)c1cc(=O)c2c(OCc3ccccc3Br)cccc2o1 [5g (series 1)]
q: // compare measured inhibition at 30 min, 1 μM, left P , right Q , return larger Write down the label attached to your selection.
a: Q
(Q: 23%, P: 10.3%)
